Would you mind telling me the reported log K HSA of each entry?
molecular target: human serum albumin (HSA) (Homo sapiens); experiment: Protein binding on chemically bonded HSA column (Chiralpak-HSA); settings: remeasured in this study, pH 7.4
Sequence (P02768 25-609): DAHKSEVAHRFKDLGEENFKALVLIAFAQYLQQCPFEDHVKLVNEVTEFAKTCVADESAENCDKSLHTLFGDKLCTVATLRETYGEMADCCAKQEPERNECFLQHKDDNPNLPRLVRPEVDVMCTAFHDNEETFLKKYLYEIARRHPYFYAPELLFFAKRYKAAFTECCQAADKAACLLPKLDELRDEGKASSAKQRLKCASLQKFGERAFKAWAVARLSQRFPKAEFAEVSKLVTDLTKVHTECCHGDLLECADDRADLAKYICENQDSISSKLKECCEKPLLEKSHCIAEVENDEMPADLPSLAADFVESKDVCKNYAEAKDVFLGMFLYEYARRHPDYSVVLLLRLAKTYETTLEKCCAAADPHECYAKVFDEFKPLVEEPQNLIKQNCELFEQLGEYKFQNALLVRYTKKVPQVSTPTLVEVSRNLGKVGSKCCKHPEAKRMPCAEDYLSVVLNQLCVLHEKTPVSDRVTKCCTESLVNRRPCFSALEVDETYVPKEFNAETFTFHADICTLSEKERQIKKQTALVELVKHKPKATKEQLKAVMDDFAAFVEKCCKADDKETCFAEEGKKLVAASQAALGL
Give the figure by itself; no unit, no explanation.

Ask | Would you kindly share the measured log K HSA for CC(O)Cn1cnc2c1c(=O)n(C)c(=O)n2C (stereo not drawn) ?
Reply | 3.02

Ask | Check COC(=O)C1=C(C)NC(C)=C(C(=O)OC(C)C)C1c1cccc2nonc12 (stereo not drawn) too.
Reply | 3.30

Ask | And then NC(=O)N1c2ccccc2C=Cc2ccccc21 [Carbamazepine] , what is it?
Reply | 1.81

Ask | Next compound up: CC(C)(C)NC(=O)[C@H]1CC[C@H]2[C@@H]3CC[C@H]4NC(=O)C=C[C@]4(C)[C@H]3CC[C@]12C [Finasteride]
Reply | 3.55

Ask | Then what about the compound CCCCNCC(O)c1ccc(O)cc1 (stereo not drawn) ?
Reply | 0.42

Ask | // next record `Cc1onc(-c2c(F)cccc2Cl)c1C(=O)N[C@@H]1C(=O)N2[C@@H]1SC(C)(C)[C@@H]2C(=O)O`
Reply | 0.65

Ask | Follow-up entry: COC(=O)C1=C(C)NC(C)=C(C(=O)OCCN(C)Cc2ccccc2)C1c1cccc([N+](=O)[O-])c1 (stereo not drawn)
Reply | 1.95

Ask | Param item: `CCC1(c2ccccc2)C(=O)NCNC1=O`
Reply | 4.01

Ask | And `OCCN1CCN(CCCN2c3ccccc3Sc3ccc(Cl)cc32)CC1` ?
Reply | 2.02

---

Experiment: IAM chromatography on new IAM.PC.DD2 columns (gradient HPLC, CHI (IAM))
Assay type: physicochemical
Conditions: new IAM.PC.DD2 column batch R20511-014-3, pH 7.4
Protocol: The IAM binding was measured using IAM.PC.DD2 HPLC columns (Regis Technologies, Inc., IL, USA) with dimensions of 100 x 4.6 mm, particle size 10 μm with 300 Å pore size. Two batches of IAM.PC.DD2 columns were studied (R20511-014-3 and P20511-014-3) that had been prepared using the new batches of silica support. […]
Observed property: R20511-014-3 CHI (IAM)

Ask | Requested read-out: R20511-014-3 CHI (IAM). Entry: `CCCN(CCC)S(=O)(=O)c1ccc(C(=O)O)cc1`
Reply | 23.45

Ask | Moving on to `Nc1ccc(S(=O)(=O)Nc2ccc(Cl)nn2)cc1`
Reply | 10.08

Ask | Now give it for CC(C)(C)NCC(O)COc1cccc2c1CC(O)C(O)C2 (stereo not shown) too.
Reply | 19.89

Ask | Now the molecule `COC1=CC(=O)C[C@@H](C)[C@]12Oc1c(Cl)c(OC)cc(OC)c1C2=O`
Reply | 31.06

Ask | Also check `CCC1(c2ccccc2)C(=O)NCNC1=O`
Reply | 10.31

Ask | Quick one: CC1=NS(=O)(=O)c2cc(Cl)ccc2N1 [Diazoxide]
Reply | 23.39

Ask | Also check `Cn1cnc2c1c(=O)[nH]c(=O)n2C`
Reply | -3.16

Ask | Note, next up: `C#C[C@]1(O)CC[C@H]2[C@@H]3CCc4cc(O)ccc4[C@H]3CC[C@@]21C`
Reply | 45.30

Ask | Same question for `Clc1ccc2c(c1)C(N1CCNCC1)=Nc1ccccc1O2` please.
Reply | 45.41

Ask | Can you check `CN(C)CCCN1c2ccccc2Sc2ccc(Cl)cc21` next?
Reply | 51.54
